# Tested on: Plasmodium falciparum (NF54)
# Protocol summary: In vitro antimalarial activity, [3H]hypoxanthine incorporation into chloroquine-sensitive P. falciparum (NF 54)
# Type: cell-based
# Study conditions: Plasmodium falciparum, NF54; Expansion data (ten concentrations, quadruplicate, ~1.8-fold dilutions)
Documented IC50 across a set of compounds
Property label: IC50 (µM)

[[record]]
compound = "CC(=O)CC(=O)O[C@]1(C)CC[C@@H]2C[C@H]1OO[C@]2(C)CS(=O)(=O)c1ccccc1 [Compound 24b]"
experimental_system = "Plasmodium falciparum (NF54)"
property_label = "IC50"
measured = 0.073

[[record]]
compound = "C[C@]1(CS(=O)(=O)c2ccccc2)OO[C@@H]2C[C@H]1CC[C@@]2(C)OC(=O)Oc1ccccc1 [Compound 27b]"
experimental_system = "Plasmodium falciparum (NF54)"
property_label = "IC50"
measured = 0.15

[[record]]
compound = "CC(=O)CC(=O)O[C@]1(C)CC[C@@H]2C[C@H]1OO[C@@]2(C)CS(=O)(=O)c1ccccc1 [Compound 24a]"
experimental_system = "Plasmodium falciparum (NF54)"
property_label = "IC50"
measured = 0.046

[[record]]
compound = "COc1ccc(CO[C@]2(C)CC[C@@H]3C[C@H]2OO[C@@]3(C)CS(=O)(=O)c2ccccc2)cc1 [Compound 34a]"
experimental_system = "Plasmodium falciparum (NF54)"
property_label = "IC50"
measured = 0.014

[[record]]
compound = "C[C@@]1(OC(=O)C(=O)N(Cc2ccccc2)Cc2ccccc2)CC[C@@H]2C[C@H]1OO[C@@]2(C)CS(=O)(=O)c1ccccc1 [Compound 26a]"
experimental_system = "Plasmodium falciparum (NF54)"
property_label = "IC50"
measured = 0.021

[[record]]
compound = "C[C@]1(CS(=O)(=O)c2ccccc2)OO[C@@H]2C[C@H]1CC[C@@]2(C)OC(=O)C(=O)N(Cc1ccccc1)Cc1ccccc1 [Compound 26b]"
experimental_system = "Plasmodium falciparum (NF54)"
property_label = "IC50"
measured = 0.081

